Assay: In vitro stability of dicarboxylate amino acid ester prodrugs in simulated gastric and intestinal juice, distilled water and pH 10 buffer (HPLC)
Details: pH 10.0, 2 h, 20° C.
Measured pH 10.0 buffer: % remaining after 2 h/20° C. of individual entries
REPORTED METRIC: pH 10.0 buffer: % remaining after 2 h/20° C. (%)

COc1ccc2c3c1O[C@H]1[C@@H](OC(=O)CCC(=O)NC(C(=O)O)C(C)C)CCC4[C@@H](C2)N(C)CC[C@@]341 (stereo in doubt)
98
COc1ccc2c3c1O[C@H]1C(OC(=O)CCC(=O)N[C@@H](Cc4ccccc4)C(=O)O)=CC[C@@]4(O)[C@@H](C2)N(C)CC[C@]314 [Oxycodone-Succinyl-Phe Enol Ester]
65
COc1ccc2c3c1OC1C(OC(=O)CCC(=O)N[C@@H](CCSC)C(=O)O)=CC[C@@]4(O)[C@@H](C2)N(C)CC[C@]314 (some centres unmarked) [Oxycodone-Succinyl-Met Enol Ester]
58
CC[C@H](C)[C@H](NC(=O)CCCC(=O)OC1=CC[C@@]2(O)[C@H]3Cc4ccc(OC)c5c4[C@@]2(CCN3C)[C@H]1O5)C(=O)O [Oxycodone-Glutaryl-Ile Enol Ester]
80
COc1ccc2c3c1OC1C(OC(=O)CCC(=O)N[C@@H](CC(C)C)C(=O)O)=CC[C@@]4(O)[C@@H](C2)N(C)CC[C@]314 (some centres unmarked) [Oxycodone-Succinyl-Leu Enol Ester]
68

====

Assay: In vitro stability of dicarboxylate amino acid ester prodrugs in simulated gastric and intestinal juice, distilled water and pH 10 buffer (HPLC)
Conditions: pH 1.1, 2 h, 37° C.
Measured Simulated gastric fluid (pH 1.1): % remaining after 2 h/37° C. of individual entries
REPORTED METRIC: Simulated gastric fluid (pH 1.1): % remaining after 2 h/37° C. (%)

COc1ccc2c3c1O[C@H]1C(OC(=O)CCC(=O)NC(C(=O)O)C(C)C)=CC[C@@]4(O)[C@@H](C2)N(C)CC[C@]314 (stereo in doubt)
98
COc1ccc2c3c1O[C@H]1[C@@H](OC(=O)CCC(=O)N[C@H](C(=O)O)C(C)C)C=CC4[C@@H](C2)N(C)CC[C@@]341 (stereo partly drawn) [Codeine-[succinyl-(S)-valine] ester, codeine-[succinyl-(S)-valine]ester]
99
COc1ccc2c3c1O[C@H]1C(OC(=O)CCC(=O)N4CCC[C@H]4C(=O)O)=CC[C@@]4(O)[C@@H](C2)N(C)CC[C@]314
98
COc1ccc2c3c1O[C@H]1C(OC(=O)CCCC(=O)N[C@H](C(=O)O)C(C)C)=CC[C@@]4(O)[C@@H](C2)N(C)CC[C@]314
98
COc1ccc2c3c1OC1C(OC(=O)CCC(=O)N[C@@H](CCSC)C(=O)O)=CC[C@@]4(O)[C@@H](C2)N(C)CC[C@]314 (some centres unmarked)
99
COc1ccc2c3c1OC1C(OC(=O)CCC(=O)N[C@@H](CC(C)C)C(=O)O)=CC[C@@]4(O)[C@@H](C2)N(C)CC[C@]314 (some centres unmarked)
98
COc1ccc2c3c1O[C@H]1C(OC(=O)CCCC(=O)N[C@@H](CC(C)C)C(=O)O)=CC[C@@]4(O)[C@@H](C2)N(C)CC[C@]314
98
COc1ccc2c3c1O[C@H]1[C@@H](OC(=O)CCC(=O)NC(C(=O)O)C(C)C)CCC4[C@@H](C2)N(C)CC[C@@]341 (stereo in doubt)
100
